Test: Multiple ascending dose study: plasma pharmacokinetics
Format: in vivo
Details: human, po, 400 mg, Day 1, 400 mg QD oral, Japanese, read-out: AUC(0-24 h) Mean (SD)
assay_metric: AUC(0-t)

Name the recorded AUC(0-t) for COc1ncc(C)c(-c2ccc3c(c2)[nH]c(=O)c2cnn([C@H]4CCOC4)c23)c1C . 18400 ng·h/mL

###

Assay: Multiple ascending dose study: plasma pharmacokinetics
Assay type: in vivo
Conditions: human, po, 100 mg, Day 14, 100 mg QD oral, read-out: AUC(0-inf) GM (% CV)
assay_metric: AUC(0-inf) (ng·h/mL)
Reply with just the number (in ng·h/mL).

Name the recorded AUC(0-inf) for COc1ncc(C)c(-c2ccc3c(c2)[nH]c(=O)c2cnn([C@H]4CCOC4)c23)c1C [Compound A] . 56400

###

Test: Single dose clinical study: plasma Compound A pharmacokinetics
Type: in vivo, human
Conditions: human, plasma, po, 400 mg, plasma, Japanese Subjects (Part D), single oral 400 mg; read-out: tmax Median
assay_metric: Tmax (h)
Reply with just the number (in h).

Name the recorded Tmax for COc1ncc(C)c(-c2ccc3c(c2)[nH]c(=O)c2cnn([C@H]4CCOC4)c23)c1C . 2.25

###

Assay: Single dose clinical study: plasma Compound A pharmacokinetics
Assay type: in vivo, human
Conditions: human, plasma, po, 75 mg, plasma, healthy adults (Parts A,B), single oral 75 mg, fasted; read-out: Vz/F GM
assay_metric: Vd/F (L)
Reply with just the number (in L).

Name the recorded Vd/F for COc1ncc(C)c(-c2ccc3c(c2)[nH]c(=O)c2cnn([C@H]4CCOC4)c23)c1C . 308

###

Assay: Multiple ascending dose study: plasma pharmacokinetics
Assay type: in vivo
Details: human, po, 25 mg, Day 14, 25 mg QD oral, read-out: AUC(0-inf) GM (% CV)
assay_metric: AUC(0-inf)
Field note: include the unit after the figure.

Name the recorded AUC(0-inf) for COc1ncc(C)c(-c2ccc3c(c2)[nH]c(=O)c2cnn([C@H]4CCOC4)c23)c1C . 15400 ng·h/mL

###

Assay: Multiple ascending dose study: plasma pharmacokinetics
Assay type: in vivo
Settings: human, po, 400 mg, Day 1, 400 mg QD oral, Japanese, read-out: AUC(0-24 h) GM (% CV)
Experimental: Four sequential cohorts of healthy participants (≥50 years and ≤85 years old) were treated with multiple ascending doses of Compound A up to the maximum tolerated dose (MTD). A total of 6 participants per cohort were randomized to Compound A. Proposed doses of Compound A were: Participants received Compound A capsules, orally once daily (QD) on Days 1 to 14 after an overnight fast of at least 10 hours. Compound A was administered orally with 240 milliliter (mL) (8 fluid ounces) of water. […]
assay_metric: AUC(0-t) (ng·h/mL)
Reply with just the number (in ng·h/mL).

Name the recorded AUC(0-t) for COc1ncc(C)c(-c2ccc3c(c2)[nH]c(=O)c2cnn([C@H]4CCOC4)c23)c1C [Compound A] . 18300

###

Assay: Single dose clinical study: plasma Compound A pharmacokinetics
Type: in vivo, human
Details: human, plasma, po, 100 mg, plasma, Part B 100 mg cohort, single oral 100 mg, Fasted; read-out: AUC (0-24 h) GM (% CV)
assay_metric: AUC(0-t) (ng·h/mL)
Reply with just the number (in ng·h/mL).

Name the recorded AUC(0-t) for COc1ncc(C)c(-c2ccc3c(c2)[nH]c(=O)c2cnn([C@H]4CCOC4)c23)c1C . 6140
